Here we list molecules with their recorded pIC50 when tested on FPR2 (Homo sapiens, UniProt P25090).
Sequence (P25090 whole entry): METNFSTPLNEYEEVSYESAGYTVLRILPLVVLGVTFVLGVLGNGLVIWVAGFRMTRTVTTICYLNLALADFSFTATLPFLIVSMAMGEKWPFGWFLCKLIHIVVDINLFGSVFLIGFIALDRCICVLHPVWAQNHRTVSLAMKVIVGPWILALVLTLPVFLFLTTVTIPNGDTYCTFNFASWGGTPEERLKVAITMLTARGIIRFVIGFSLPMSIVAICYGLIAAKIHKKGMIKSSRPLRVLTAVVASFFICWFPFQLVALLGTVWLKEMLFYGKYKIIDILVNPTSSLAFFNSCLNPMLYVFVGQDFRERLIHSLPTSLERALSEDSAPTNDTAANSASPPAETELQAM
pIC50: −log10 of the molar value. Numbered stars: 1 amine (or outer) side, 2 acyl side, 3 side chain; on linkers, the order of the positions; unused ones are H or OH. Square brackets hold non-standard residues; d marks the D form. Peptide text beside a SMILES is read from it. X3 = O=C([C@H](C[C@@H]1[C@H](F)C[C@H](F)C[C@@H]1F)N[*:1])[*:2]; X2 = O=C([C@H](C[C@@H]1C[C@H](F)C[C@H](F)C1)N[*:1])[*:2]; Phe(F5) = N[C@@H](Cc1c(F)c(F)c(F)c(F)c1F)C(=O)O; Phe(4-F) = N[C@@H](Cc1ccc(F)cc1)C(=O)O
endpoint.label: pIC50

molecule: CSCC[C@H](NC(=O)[C@H](C[C@@H]1C[C@H](F)C[C@H](F)C1)NC(=O)[C@H](CCCCN)NC(=O)[C@@H](N)Cc1c[nH]c2ccccc12)C(=O)N[C@H](C(=O)N[C@H](CCSC)C(N)=O)C(C)C [23b] (H-WK[X2]MV[dM]-NH2)
assay.system: FPR2 (Homo sapiens, UniProt P25090)
endpoint.label: pIC50
value.measured: ~7.00
--
molecule: CSCC[C@H](NC(=O)[C@H](Cc1ccc(F)cc1)NC(=O)[C@H](CCCCN)NC(=O)[C@@H](N)Cc1c[nH]c2ccccc12)C(=O)N[C@H](C(=O)N[C@H](CCSC)C(N)=O)C(C)C [compound 24] (H-WK[Phe(4-F)]MV[dM]-NH2)
assay.system: FPR2 (Homo sapiens, UniProt P25090)
endpoint.label: pIC50
value.measured: ~7.00
--
molecule: CSCC[C@H](NC(=O)[C@H](Cc1c(F)c(F)c(F)c(F)c1F)NC(=O)[C@H](CCCCN)NC(=O)[C@@H](N)Cc1c[nH]c2ccccc12)C(=O)N[C@H](C(=O)N[C@H](CCSC)C(N)=O)C(C)C [compound 25] (H-WK[Phe(F5)]MV[dM]-NH2)
assay.system: FPR2 (Homo sapiens, UniProt P25090)
endpoint.label: pIC50
value.measured: ~6.00
--
molecule: CSCC[C@H](NC(=O)[C@H](C[C@@H]1[C@H](F)C[C@H](F)C[C@@H]1F)NC(=O)[C@H](CCCCN)NC(=O)[C@@H](N)Cc1c[nH]c2ccccc12)C(=O)N[C@H](C(=O)N[C@H](CCSC)C(N)=O)C(C)C [23c] (H-WK[X3]MV[dM]-NH2)
assay.system: FPR2 (Homo sapiens, UniProt P25090)
endpoint.label: pIC50
value.measured: ~6.00

* * *

# Test system: T. brucei
# method.summary: Trypanocidal activity against growing cells
# Type: cell-based, Trypanosoma brucei
# reported.conditions: Trypanosoma brucei
endpoint.label: EC50 (µM)

molecule: O=C1NC(CC2CC(F)CC(F)C2)C2NC1Cc1c2[nH]c2ccccc12 (stereo not drawn) [28b]
assay.system: T. brucei
value.measured: 11.3
//
molecule: O=C1NC(CC2C(F)C(F)C(F)C(F)C2F)C2NC1Cc1c2[nH]c2ccccc12 (stereo not drawn) [28d]
assay.system: T. brucei
value.measured: 22
//
molecule: O=C1NC(CC2CCC(F)CC2)C2NC1Cc1c2[nH]c2ccccc12 (stereo not drawn) [28a]
assay.system: T. brucei
value.measured: 10.7

* * *

# Tested on: HeLa
# method.summary: Mammalian cell activity
# Type: cell-based
# reported.conditions: Homo sapiens

compound: O=C1NC(CC2CCC(F)CC2)C2NC1Cc1c2[nH]c2ccccc12 (stereo not shown) [28a]
EC50: 105 µM

Ref: paper PMC12631002
